protein stability index reference
B1: TMEM106C (parent)
chain: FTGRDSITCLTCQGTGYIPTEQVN

Variants of: B1
MEASUREMENT_DESCRIPTION: protein stability index of a GFP-peptide fusion (GPS, HEK-293T) (PSI 1-6); higher = more stable;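 also: lentivirally expressed fusions sorted by FACS into six bins by GFP to DsRed ratio, PSI derived from sequencing read proportions per bin multiplied by bin number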
SETUP_CONDITIONS: c terminus: a fixed tail appended

VARIANT_DESCRIPTION: I18F
protein stability index: 1.86

## Input Consider the variant shown here: "C9M" What is its recorded protein stability index?
## Output 2.88

## Input Consider the variant shown here: "V23H" What is its recorded protein stability index?
## Output 2.11

Hey, just so you know, these numbers are from the supplement of paper PMC10567573.
